# Test system: wheat powdery mildew pathogen (Erysiphe graminis f. sp. tritici)
# experiment: Wheat powdery mildew seed treatment test
# Assay type: in vivo
# study.conditions: Blumeria graminis, 168 h; seed treatment 100 g/100 kg wheat seeds (Chihoku); inoculation after 8 to 10 days; lesion area ratio 7 days after inoculation
I'd appreciate it if you could supply pest or weed control at 100 g/100 kg seed values for the items below.

**Q:** Sample CCN(C)C(=O)N[C@H](Cn1c(=O)c(/C(C)=N/OC(C)C)cn(CC(O)c2cc(F)ccc2OC)c1=O)C(C)C (stereo partly shown) — what was its pest or weed control at 100 g/100 kg seed?
**A:** ≥ 75%

**Q:** Please give the measured pest or weed control at 100 g/100 kg seed for this compound: CCC(=O)N[C@@H](CC)Cn1c(=O)c(/C(C)=N/OC(C)C)cn(CC(O)c2cc(F)ccc2OC)c1=O (stereo partly shown)
**A:** ≥ 75%

**Q:** Look up pest or weed control at 100 g/100 kg seed for this compound: COc1ccc(F)cc1C(O)Cn1cc(/C(C)=N/OC(C)C)c(=O)n(C[C@@H](NC(C)=O)C(C)C)c1=O (stereo partly shown)
**A:** ≥ 75%

**Q:** Recorded pest or weed control at 100 g/100 kg seed for CCCC(=O)N[C@@H](C)Cn1c(=O)c(/C(C)=N/OC(C)C)cn(CC(O)c2cc(F)ccc2OC)c1=O (stereo partly shown) , please?
**A:** ≥ 75%

**Q:** Data request, read-out pest or weed control at 100 g/100 kg seed, for CCCC(=O)N[C@H](Cn1c(=O)c(/C(C)=N/OC(C)C)cn(CC(O)c2ccccc2OC)c1=O)C(C)C (stereo partly shown)
**A:** ≥ 75%

**Q:** What pest or weed control at 100 g/100 kg seed value was documented for this compound, COc1ccc(F)cc1C(O)Cn1cc(/C(C)=N/OC(C)C)c(=O)n(C[C@@H](NC(=O)C(C)=O)C(C)C)c1=O (stereo partly shown) ?
**A:** ≥ 75%

**Q:** I would be grateful if you could share the reported pest or weed control at 100 g/100 kg seed for COc1ccccc1C(O)Cn1cc(/C(C)=N/OC(C)C)c(=O)n(C[C@H](C)NC(=O)C(C)C)c1=O (stereo partly shown) .
**A:** ≥ 75%

Reference source: patent US12593845B2
